Study target: Rho-associated protein kinase 2 (Homo sapiens, UniProt O75116); note: in the data inactive means no Kd found up to 30 µM
Sequence (O75116 whole entry): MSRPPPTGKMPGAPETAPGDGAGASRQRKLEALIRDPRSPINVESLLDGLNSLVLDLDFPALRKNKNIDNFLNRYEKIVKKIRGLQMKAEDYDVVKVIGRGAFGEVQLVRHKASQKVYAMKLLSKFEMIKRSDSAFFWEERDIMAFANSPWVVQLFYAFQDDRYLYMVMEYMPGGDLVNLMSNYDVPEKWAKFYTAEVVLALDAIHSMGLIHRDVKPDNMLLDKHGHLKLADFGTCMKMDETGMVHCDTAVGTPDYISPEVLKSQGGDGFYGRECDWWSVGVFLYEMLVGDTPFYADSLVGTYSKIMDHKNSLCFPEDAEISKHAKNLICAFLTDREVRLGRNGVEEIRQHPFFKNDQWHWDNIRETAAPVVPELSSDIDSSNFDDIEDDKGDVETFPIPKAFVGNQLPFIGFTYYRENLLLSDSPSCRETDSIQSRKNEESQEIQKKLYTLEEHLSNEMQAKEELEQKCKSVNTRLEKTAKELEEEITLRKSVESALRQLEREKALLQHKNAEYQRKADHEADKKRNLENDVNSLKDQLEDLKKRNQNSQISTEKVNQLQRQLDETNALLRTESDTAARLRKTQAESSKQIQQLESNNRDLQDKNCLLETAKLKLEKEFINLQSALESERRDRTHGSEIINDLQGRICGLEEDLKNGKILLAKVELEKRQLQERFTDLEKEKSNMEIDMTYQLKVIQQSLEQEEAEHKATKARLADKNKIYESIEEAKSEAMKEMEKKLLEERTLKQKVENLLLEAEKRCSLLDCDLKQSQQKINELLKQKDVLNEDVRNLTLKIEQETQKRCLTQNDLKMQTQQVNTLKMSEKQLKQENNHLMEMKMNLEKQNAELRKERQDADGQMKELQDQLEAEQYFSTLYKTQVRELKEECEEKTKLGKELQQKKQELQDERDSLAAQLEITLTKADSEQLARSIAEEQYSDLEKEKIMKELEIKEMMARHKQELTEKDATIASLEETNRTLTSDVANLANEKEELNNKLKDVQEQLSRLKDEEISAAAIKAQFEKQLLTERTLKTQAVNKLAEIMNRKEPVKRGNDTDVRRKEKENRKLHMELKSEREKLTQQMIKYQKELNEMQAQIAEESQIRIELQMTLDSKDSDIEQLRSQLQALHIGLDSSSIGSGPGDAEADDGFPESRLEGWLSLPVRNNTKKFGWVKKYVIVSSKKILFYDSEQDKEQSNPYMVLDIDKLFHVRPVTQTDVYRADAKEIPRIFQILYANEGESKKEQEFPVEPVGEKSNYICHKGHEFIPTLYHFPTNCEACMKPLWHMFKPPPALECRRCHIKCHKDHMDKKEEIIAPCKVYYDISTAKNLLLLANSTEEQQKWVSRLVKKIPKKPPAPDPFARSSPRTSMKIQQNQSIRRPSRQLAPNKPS
The source made the active and inactive calls.
Return exactly one item of active, inactive

Compound	Assigned category
N#CC1(c2ccc(NC(=O)c3cccnc3NCc3ccncc3)cc2)CCCC1 [RIVOCERANIB]	inactive
CC(=O)c1cnc2ccc(-c3cc(Cl)c(O)c(Cl)c3)nc2c1N[C@H]1CC[C@H](CN(C)C)CC1	inactive
Cc1cccc(-c2nn3c(c2-c2ccnc4ccc(C(N)=O)cc24)CCC3)n1 [GALUNISERTIB]	inactive
Cc1nc(NC(=O)N2CCC[C@H]2C(N)=O)sc1-c1ccnc(C(C)(C)C(F)(F)F)c1 [ALPELISIB]	inactive
CO[C@H]1C[C@@H]2CC[C@@H](C)[C@@](O)(O2)C(=O)C(=O)N2CCCC[C@H]2C(=O)O[C@H]([C@H](C)C[C@@H]2CC[C@@H](OC(=O)C(C)(CO)CO)[C@H](OC)C2)CC(=O)[C@H](C)/C=C(\C)[C@@H](O)[C@@H](OC)C(=O)[C@H](C)C[C@H](C)/C=C/C=C/C=C/1C [TEMSIROLIMUS]	inactive
Cc1cnc(NC(=O)Nc2cc(Br)c(C)cc2OC[C@@H]2CNCCO2)cn1 [RABUSERTIB]	inactive

In: What did the test return for COc1ccc(S(=O)(=O)N(C(C)=O)c2ccccc2/C=C/c2cc[n+]([O-])cc2)cc1 [HMN-214] ?
Out: inactive

* * *

Study target: Macrophage-stimulating protein receptor (Homo sapiens, UniProt Q04912); note: in the data inactive means no Kd found up to 30 µM
Sequence (Q04912 25-304 limits assumed): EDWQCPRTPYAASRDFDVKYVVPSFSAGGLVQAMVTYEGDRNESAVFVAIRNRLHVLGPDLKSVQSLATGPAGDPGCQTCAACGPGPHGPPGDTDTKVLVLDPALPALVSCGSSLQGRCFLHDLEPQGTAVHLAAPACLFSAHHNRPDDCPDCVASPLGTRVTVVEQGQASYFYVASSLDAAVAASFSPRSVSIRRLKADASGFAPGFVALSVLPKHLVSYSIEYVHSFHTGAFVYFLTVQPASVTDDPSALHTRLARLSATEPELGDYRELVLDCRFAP
Sequence (Q04912 310-1400 limits assumed): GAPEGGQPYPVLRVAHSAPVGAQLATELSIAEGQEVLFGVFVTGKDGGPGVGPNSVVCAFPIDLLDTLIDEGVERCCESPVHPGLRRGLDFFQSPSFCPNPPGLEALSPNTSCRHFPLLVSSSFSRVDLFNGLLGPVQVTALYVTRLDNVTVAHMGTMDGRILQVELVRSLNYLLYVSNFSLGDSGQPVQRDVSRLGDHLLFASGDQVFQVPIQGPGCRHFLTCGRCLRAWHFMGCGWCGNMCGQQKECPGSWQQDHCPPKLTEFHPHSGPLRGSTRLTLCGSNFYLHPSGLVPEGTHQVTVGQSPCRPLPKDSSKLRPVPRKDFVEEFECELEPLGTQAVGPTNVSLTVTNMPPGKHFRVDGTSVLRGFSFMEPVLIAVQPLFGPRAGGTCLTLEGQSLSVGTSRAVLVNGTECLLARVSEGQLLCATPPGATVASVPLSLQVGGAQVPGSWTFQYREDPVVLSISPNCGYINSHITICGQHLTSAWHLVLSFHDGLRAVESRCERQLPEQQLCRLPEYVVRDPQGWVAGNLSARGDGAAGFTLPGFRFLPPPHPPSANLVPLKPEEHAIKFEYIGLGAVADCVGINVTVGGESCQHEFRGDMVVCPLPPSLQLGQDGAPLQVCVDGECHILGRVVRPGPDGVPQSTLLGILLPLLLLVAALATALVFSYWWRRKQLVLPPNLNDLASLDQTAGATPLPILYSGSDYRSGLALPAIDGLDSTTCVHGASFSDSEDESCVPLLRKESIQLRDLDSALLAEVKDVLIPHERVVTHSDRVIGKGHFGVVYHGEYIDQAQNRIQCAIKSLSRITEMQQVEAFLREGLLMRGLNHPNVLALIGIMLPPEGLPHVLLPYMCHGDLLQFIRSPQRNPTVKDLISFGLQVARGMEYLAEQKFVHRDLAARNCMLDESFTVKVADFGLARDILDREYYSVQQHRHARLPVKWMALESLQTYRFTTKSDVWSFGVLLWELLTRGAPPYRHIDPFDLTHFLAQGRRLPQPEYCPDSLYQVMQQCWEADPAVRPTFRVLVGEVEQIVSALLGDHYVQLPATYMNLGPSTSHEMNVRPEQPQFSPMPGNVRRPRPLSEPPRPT
Active and inactive are the calls of the source.
Give one outcome, nothing more. List: t (active), f (inactive)

In: Record request — test call for `CN(C[C@@H]1COCCO1)S(=O)(=O)Nc1ccc2ccc3ncc(-c4cnn(C)c4)cc3c(=O)c2c1`
Out: t

In: Check the results log: what was the call for `CC(=O)c1cnc2ccc(-c3cc(Cl)c(O)c(Cl)c3)nc2c1N[C@H]1CC[C@H](CN(C)C)CC1` ?
Out: t

In: # outcome recorded in this test, key = `Cn1cnc2c(F)c(Nc3ccc(Br)cc3F)c(C(=O)NOCCO)cc21`
Out: f

In: Test call, this compound: `Cc1nc(NC(=O)N2CCC[C@H]2C(N)=O)sc1-c1ccnc(C(C)(C)C(F)(F)F)c1`
Out: f

* * *

These records show Kd for Calcium/calmodulin-dependent protein kinase kinase 2 (Homo sapiens).
Activity calls are given as the source filed them.

Previously resolved entries follow.
>>> df
                                   compound                              study_target  reported_endpoint  recorded_measurement
0  O=C1NC(=O)[C@@H](c2cn3c4c(cccc24)CCC3)[C@@H]1c1c[nH]c2ccccc12 [TIVANTINIB]  Calcium/calmodulin-dependent protein kinase kinase 2 (Homo sapiens)                 Kd    > 30 µM (inactive)
1  COCc1c(-c2ccc(NC(=O)Nc3cc(C(F)(F)F)ccc3F)c(F)c2)c2c(N)ncnn2c1CN1CCOCC1  Calcium/calmodulin-dependent protein kinase kinase 2 (Homo sapiens)                 Kd    > 30 µM (inactive)
2  CN(C[C@@H]1COCCO1)S(=O)(=O)Nc1ccc2ccc3ncc(-c4cnn(C)c4)cc3c(=O)c2c1  Calcium/calmodulin-dependent protein kinase kinase 2 (Homo sapiens)                 Kd    > 30 µM (inactive)
3  NC(=O)c1c(OCc2c(F)cc(Br)cc2F)nsc1NC(=O)NCCCCN1CCCC1  Calcium/calmodulin-dependent protein kinase kinase 2 (Homo sapiens)                 Kd    > 30 µM (inactive)
4  CN1C/C=C/CCOc2cccc(c2)-c2ccnc(n2)Nc2cccc(c2)C1  Calcium/calmodulin-dependent protein kinase kinase 2 (Homo sapiens)                 Kd    > 30 µM (inactive)
5  Cn1cnc2c(F)c(Nc3ccc(Br)cc3F)c(C(=O)NOCCO)cc21  Calcium/calmodulin-dependent protein kinase kinase 2 (Homo sapiens)                 Kd    > 30 µM (inactive)
6  CC(C)c1cc(CNc2nc(Nc3cc(C4CC4)[nH]n3)cc(N3CCN(C)CC3)n2)on1  Calcium/calmodulin-dependent protein kinase kinase 2 (Homo sapiens)                 Kd      2.34 µM (active)
7  Cc1cc(C(=O)NOCCO)c(Nc2ccc(I)cc2F)n(C)c1=O  Calcium/calmodulin-dependent protein kinase kinase 2 (Homo sapiens)                 Kd    > 30 µM (inactive)
8  C[C@@H](N)c1ccc(C(=O)Nc2ccnc3[nH]ccc23)cc1  Calcium/calmodulin-dependent protein kinase kinase 2 (Homo sapiens)                 Kd    > 30 µM (inactive)
9  Cn1ncc(Cl)c1-c1cc(C(=O)N[C@H](CN)Cc2ccc(F)c(F)c2)oc1Cl  Calcium/calmodulin-dependent protein kinase kinase 2 (Homo sapiens)                 Kd    > 30 µM (inactive)

In: Recall the reported Kd of O=c1[nH]ccc2cc(OC3CCNCC3)ccc12 [SAR-407899 FREE BASE] on Calcium/calmodulin-dependent protein kinase kinase 2 (Homo sapiens) and write it down.
Sequence (Q96RR4 whole entry): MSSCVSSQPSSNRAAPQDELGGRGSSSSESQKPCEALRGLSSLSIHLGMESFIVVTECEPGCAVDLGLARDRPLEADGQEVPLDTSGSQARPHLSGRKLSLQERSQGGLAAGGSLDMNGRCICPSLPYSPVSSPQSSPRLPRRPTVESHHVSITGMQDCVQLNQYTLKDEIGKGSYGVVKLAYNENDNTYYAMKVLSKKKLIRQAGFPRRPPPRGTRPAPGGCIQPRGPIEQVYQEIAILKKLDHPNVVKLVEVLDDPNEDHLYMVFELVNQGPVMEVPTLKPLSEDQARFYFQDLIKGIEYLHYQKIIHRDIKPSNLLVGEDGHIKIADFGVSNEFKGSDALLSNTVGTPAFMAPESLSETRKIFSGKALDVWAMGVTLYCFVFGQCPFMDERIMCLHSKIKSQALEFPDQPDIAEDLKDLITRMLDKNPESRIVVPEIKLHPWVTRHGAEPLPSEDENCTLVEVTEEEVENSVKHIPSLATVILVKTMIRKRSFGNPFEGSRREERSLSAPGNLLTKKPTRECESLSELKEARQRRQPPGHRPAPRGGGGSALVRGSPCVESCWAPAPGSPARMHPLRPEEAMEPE
Out: > 30 µM (inactive)

In: Quote Calcium/calmodulin-dependent protein kinase kinase 2 (Homo sapiens) Kd for entry `NC1(c2ccc(-c3nc4ccn5c(=O)[nH]nc5c4cc3-c3ccccc3)cc2)CCC1` .
Out: > 30 µM (inactive)

In: Param request: Kd | system Calcium/calmodulin-dependent protein kinase kinase 2 (Homo sapiens) | item `COc1c(OCCCN2CCOCC2)ccc2c1N=C(NC(=O)c1cnc(N)nc1)N1CCN=C21`; note: in the data inactive means no Kd found up to 30 µM
Out: > 30 µM (inactive)

* * *

Study target: Dual specificity protein kinase CLK2 (Homo sapiens, UniProt P49760); note: in the data inactive means no Kd found up to 30 µM
Sequence (P49760 whole entry): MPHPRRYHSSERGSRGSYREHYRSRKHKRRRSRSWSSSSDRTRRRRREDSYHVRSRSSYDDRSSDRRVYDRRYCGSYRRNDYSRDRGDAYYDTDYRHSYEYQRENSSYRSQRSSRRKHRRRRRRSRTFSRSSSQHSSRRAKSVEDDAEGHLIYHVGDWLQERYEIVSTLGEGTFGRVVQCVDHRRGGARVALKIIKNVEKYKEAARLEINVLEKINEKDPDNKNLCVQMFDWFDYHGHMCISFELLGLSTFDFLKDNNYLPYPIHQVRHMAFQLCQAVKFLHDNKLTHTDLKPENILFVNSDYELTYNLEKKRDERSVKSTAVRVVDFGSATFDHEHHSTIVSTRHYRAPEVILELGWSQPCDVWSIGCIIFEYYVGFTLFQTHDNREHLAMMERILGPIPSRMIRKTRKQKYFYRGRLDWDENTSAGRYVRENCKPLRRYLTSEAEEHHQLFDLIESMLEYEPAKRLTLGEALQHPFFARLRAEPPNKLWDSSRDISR
Structures can show the parent of a compound that is named as a salt. Calls of active or inactive are those of the source.
Reported Kd by item:

                                   molecule                              study_target  recorded_measurement
0  Cc1nc(Nc2n[nH]c3c2CN(C(=O)N[C@H](CN(C)C)c2ccccc2)C3(C)C)c2sccc2n1 [PF-03758309]  Dual specificity protein kinase CLK2 (Homo sapiens, UniProt P49760)    > 30 µM (inactive)
1  Cn1cnc2c(F)c(Nc3ccc(Br)cc3F)c(C(=O)NOCCO)cc21 [BINIMETINIB]  Dual specificity protein kinase CLK2 (Homo sapiens, UniProt P49760)    > 30 µM (inactive)
2  CCS(=O)(=O)N1CCN(c2ccc(Nc3ncc(C(N)=O)c(NC4CC4)n3)cc2)CC1 [Cerdulatinib Hydrochloride]  Dual specificity protein kinase CLK2 (Homo sapiens, UniProt P49760)    > 30 µM (inactive)

// below: Kd requested for another molecule
In: Quick one: give measured Kd for Cc1cnc(NC(=O)Nc2cc(Br)c(C)cc2OC[C@@H]2CNCCO2)cn1 [RABUSERTIB]
Out: > 30 µM (inactive)

* * *

Study target: Tyrosine-protein kinase Yes (Homo sapiens, UniProt P07947); note: in the data inactive means no Kd found up to 30 µM
Active and inactive are the calls of the source.
A correct response names exactly one class from yes (1) = active, no (0) = inactive

Worked set:
>>> print(df.to_string())
                                   compound  assigned_category
0  CCOc1cc2ncc(C#N)c(Nc3ccc(F)c(Cl)c3)c2cc1NC(=O)/C=C/CN(C)C [PELITINIB]             no (0)
1  N#CC1(c2ccc(NC(=O)c3cccnc3NCc3ccncc3)cc2)CCCC1 [RIVOCERANIB]             no (0)
2  Cn1ncc(Cl)c1-c1cc(C(=O)N[C@H](CN)Cc2ccc(F)c(F)c2)oc1Cl [UPROSERTIB]             no (0)
3  COc1cc2c(Nc3ccc(Cl)c(Cl)c3F)ncnc2cc1OC[C@@H]1C[C@@H]2CN(C)C[C@@H]2C1 [TESEVATINIB]            yes (1)
4  COc1ncc(-c2ccc3nccc(-c4ccnnc4)c3c2)cc1NS(=O)(=O)c1ccc(F)cc1F [OMIPALISIB]             no (0)

In: Recorded call for Cc1nc2cc(-n3ncc(C(=O)c4cc5ccccc5[nH]4)c3N)ccc2[nH]1 [FGFR INHIBITOR DEBIO 1347] ?
Out: no (0)

In: What is the recorded call for this compound in the test? CNC(=O)c1cccc2cc(Oc3ccnc4cc(OCC5(N)CC5)c(OC)cc34)ccc12 [LUCITANIB]
Out: no (0)

* * *

Study target: Mitogen-activated protein kinase kinase kinase kinase 1 (Homo sapiens); note: in the data inactive means no Kd found up to 30 µM
Sequence (Q92918 whole entry): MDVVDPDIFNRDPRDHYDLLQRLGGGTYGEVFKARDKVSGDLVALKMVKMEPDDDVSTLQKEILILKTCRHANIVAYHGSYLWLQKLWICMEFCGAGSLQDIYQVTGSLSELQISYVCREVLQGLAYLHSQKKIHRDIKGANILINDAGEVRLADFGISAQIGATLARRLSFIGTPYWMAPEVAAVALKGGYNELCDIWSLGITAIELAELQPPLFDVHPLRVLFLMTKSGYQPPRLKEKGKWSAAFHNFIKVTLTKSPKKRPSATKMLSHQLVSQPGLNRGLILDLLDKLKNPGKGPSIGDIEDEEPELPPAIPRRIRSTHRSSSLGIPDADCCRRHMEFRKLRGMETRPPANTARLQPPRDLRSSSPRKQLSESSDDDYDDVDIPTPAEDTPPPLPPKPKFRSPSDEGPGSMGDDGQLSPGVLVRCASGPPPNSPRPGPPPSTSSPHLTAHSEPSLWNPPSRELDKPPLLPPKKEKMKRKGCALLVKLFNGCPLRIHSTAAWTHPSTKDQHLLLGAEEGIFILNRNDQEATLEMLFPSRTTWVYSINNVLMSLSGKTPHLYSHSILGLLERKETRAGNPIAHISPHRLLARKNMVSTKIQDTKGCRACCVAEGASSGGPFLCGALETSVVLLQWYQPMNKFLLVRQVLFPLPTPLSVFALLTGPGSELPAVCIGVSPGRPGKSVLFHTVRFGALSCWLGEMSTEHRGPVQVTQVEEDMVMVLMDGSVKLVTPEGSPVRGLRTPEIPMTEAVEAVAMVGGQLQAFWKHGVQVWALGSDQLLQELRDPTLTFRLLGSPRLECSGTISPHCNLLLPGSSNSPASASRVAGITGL
Structures can show the parent of a compound that is named as a salt. Activity calls are given as the source filed them.
Choose one outcome from this list and give only that: YES (active), NO (inactive)

Completed entries (count: 4):
Compound	Study target	Assigned category
COc1cc([C@@H]2c3cc4c(cc3[C@H](O)[C@H]3COC(=O)[C@@H]23)OCO4)cc(OC)c1OC	Mitogen-activated protein kinase kinase kinase kinase 1 (Homo sapiens)	NO
O=c1[nH]ccc2cc(OC3CCNCC3)ccc12 [SAR-407899 FREE BASE]	Mitogen-activated protein kinase kinase kinase kinase 1 (Homo sapiens)	NO
COc1c(OCCCN2CCOCC2)ccc2c1N=C(NC(=O)c1cnc(N)nc1)N1CCN=C21	Mitogen-activated protein kinase kinase kinase kinase 1 (Homo sapiens)	NO
CCS(=O)(=O)N1CCN(c2ccc(Nc3ncc(C(N)=O)c(NC4CC4)n3)cc2)CC1 [Cerdulatinib Hydrochloride]	Mitogen-activated protein kinase kinase kinase kinase 1 (Homo sapiens)	NO

In: Record request — test call for `Cc1nc2cc(-n3ncc(C(=O)c4cc5ccccc5[nH]4)c3N)ccc2[nH]1`
Out: NO

In: In this assay, the call recorded for `CCCCCCCCCCCCCCCCCCOP(=O)([O-])OC1CC[N+](C)(C)CC1` was what?
Out: NO

In: Short answer needed: outcome of this test for `CNC(=O)c1cc(Oc2ccc(NC(=O)Nc3cc(C(C)(C)C)nn3-c3ccc4ncccc4c3)c(F)c2)ccn1` ?
Out: YES

In: Which result was noted for this compound in the test: `COCC(=O)NC/C=C/c1ccc2ncnc(Nc3ccc(Oc4ccc(C)nc4)c(C)c3)c2c1`
Out: NO

In: Please let me know the test result on file for `Nc1ncnc2c1c(-c1cccc(OCc3ccccc3)c1)cn2[C@H]1C[C@@H](CN2CCC2)C1` .
Out: NO

In: Assay outcome for `Cc1cc(C(=O)NOCCO)c(Nc2ccc(I)cc2F)n(C)c1=O` : what was it?
Out: NO

In: Each compound tested received a call. Report the one for `CNC(=O)c1nn(C)c2c1C(C)(C)Cc1cnc(Nc3ccc(N4CCN(C)CC4)cc3)nc1-2` .
Out: YES

In: Recorded call for `CO[C@H]1C[C@@H]2CC[C@@H](C)[C@@](O)(O2)C(=O)C(=O)N2CCCC[C@H]2C(=O)O[C@H]([C@H](C)C[C@@H]2CC[C@@H](OP(C)(C)=O)[C@H](OC)C2)CC(=O)[C@H](C)/C=C(\C)[C@@H](O)[C@@H](OC)C(=O)[C@H](C)C[C@H](C)/C=C/C=C/C=C/1C` ?
Out: NO
